Tested on: Plasmodium falciparum
Experiment: Antimalarial activity against chloroquine-,pyrimethamine-resistant Plasmodium falciparum W2 assessed as inhibition of [3H]hypoxanthine incorporation after 96 hrs by microtiter plate scintillation counting
Assay type: functional, organism-based
Would you mind telling me the reported pIC50 of each entry?
In plain terms, pIC50 is the concentration in mol/L turned into minus its base-10 logarithm.

Query (compound): CC[C@H]1OC(=O)[C@H](C)[C@@H](O[C@H]2C[C@@](C)(OC)[C@@H](O)[C@H](C)O2)[C@H](C)[C@@H](O[C@@H]2O[C@H](C)C[C@H](N(C)C)[C@H]2O)[C@](C)(O)C[C@@H](C)CN(CCCNC(=S)NC(c2ccccc2)c2ccccc2)[C@H](C)[C@@H](O)[C@]1(C)O ; field requested: pIC50
7.42

I am curious: what pIC50 value has been reported for CC[C@H]1OC(=O)[C@H](C)[C@@H](O[C@H]2C[C@@](C)(OC)[C@@H](O)[C@H](C)O2)[C@H](C)[C@@H](O[C@@H]2O[C@H](C)C[C@H](N(C)C)[C@H]2O)[C@](C)(O)C[C@@H](C)CN(CCCNC(=O)Nc2ccccc2-c2ccccc2)[C@H](C)[C@@H](O)[C@]1(C)O ?
6.69

State the recorded pIC50 for this entry: CC[C@H]1OC(=O)[C@H](C)[C@@H](O[C@H]2C[C@@](C)(OC)[C@@H](O)[C@H](C)O2)[C@H](C)[C@@H](O[C@@H]2O[C@H](C)C[C@H](N(C)C)[C@H]2O)[C@](C)(O)C[C@@H](C)CN(CCCNC(=O)Nc2cc(F)cc3c2OCOC3)[C@H](C)[C@@H](O)[C@]1(C)O
6.51

Data request, read-out pIC50, for CC[C@H]1OC(=O)[C@H](C)[C@@H](O[C@H]2C[C@@](C)(OC)[C@@H](O)[C@H](C)O2)[C@H](C)[C@@H](O[C@@H]2O[C@H](C)C[C@H](N(C)C)[C@H]2O)[C@](C)(O)C[C@@H](C)CN(CCCNC(=S)NC2CC3C=CC2C3)[C@H](C)[C@@H](O)[C@]1(C)O (stereo not given in full)
6.76

Entry under review: CC[C@H]1OC(=O)[C@H](C)[C@@H](O[C@H]2C[C@@](C)(OC)[C@@H](O)[C@H](C)O2)[C@H](C)[C@@H](O[C@@H]2O[C@H](C)C[C@H](N(C)C)[C@H]2O)[C@](C)(O)C[C@@H](C)CN(CCCNC(=S)Nc2ccc([N+](=O)[O-])cc2)[C@H](C)[C@@H](O)[C@]1(C)O . Reported pIC50?
7.43
